subject.of.test: CIB1 and αIIb interaction (CIB1-GST : F-αIIb peptide) (Homo sapiens)
Construct: made in house; host or cells: BL-21 plus RIL cells (E. coli)
Sequence (Q99828 1-191): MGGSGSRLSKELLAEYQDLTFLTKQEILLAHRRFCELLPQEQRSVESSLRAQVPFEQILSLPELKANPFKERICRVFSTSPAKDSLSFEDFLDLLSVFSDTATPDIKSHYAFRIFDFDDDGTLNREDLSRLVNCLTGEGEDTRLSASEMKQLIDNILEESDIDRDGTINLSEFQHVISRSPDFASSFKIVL
measurement.description: FP assay, 1536-well qHTS format (primary and confirmatory screen)
Format: binding
stated.conditions: qHTS primary screen hits, Table S2; read-out: IC50
pIC50: −log10 of the molar value.
# key: entry, value: pIC50

compound.smiles	pIC50
CC(C)Oc1cccc(NC(=O)c2ccccc2C(F)(F)F)c1	4.00
Cc1ccc(S(=O)(=O)Nc2cnccc2C(=O)Nc2nc(-c3cccc(C)c3)cs2)cc1.O=C(O)C(F)(F)F	4.45
Cc1ccnc(NC(=S)N2CCc3ccccc3C2)c1.O=C(O)C(F)(F)F	4.10
O=C1NC(c2cccc([N+](=O)[O-])c2)=CCN1c1ccccc1O	4.30

----------
subject.of.test: GST-CIB1 : F-scrambled peptide (Homo sapiens, UniProt Q99828)
Construct: made in house; host or cells: BL-21 plus RIL cells (E. coli)
measurement.description: FP scrambled-peptide counter screen, 1536-well format
Assay type: binding
stated.conditions: counterscreen; read-out: IC50 [μM] (counterscreen)

compound	IC50 (µM)
C[C@H](Cc1ccc(O)c(O)c1)[C@@H](C)Cc1ccc(O)c(O)c1 [NCGC00094201-01]	12.6
O=C(NC1=CC(=O)c2ccccc2C1=O)c1ccccc1.O=C(O)C(F)(F)F [NCGC00357425-01]	11.2
COc1cccc2nc(-c3cccs3)nc(NN3C(=O)C=C(C)C3=O)c12 [NCGC00161703-02]	17.8
CNc1ccc(C(=O)Oc2cc(ON=[N+]([O-])N(C)C)c([N+](=O)[O-])cc2[N+](=O)[O-])cc1 [NCGC00168169-02]	39.8
COc1cc(Nc2c(C#N)cnc3cc(OCCCN4CCN(C)CC4)c(OC)cc23)c(Cl)cc1Cl [NCGC00241107-05]	20
Oc1ccc(-c2nnn[nH]2)c2cccnc12 [NCGC00184885-01]	35.5
O=C1C[C@@](c2ccc(N3CCOCC3)cc2)(c2ccsc2)NC(=O)C1Sc1ccccc1Cl (stereo partly shown) [NCGC00420796-01]	6.3
CC1=NN(c2ccc(C)c(C)c2)C(=O)/C1=N/Nc1cccc(-c2cccc(C(=O)O)c2)c1O [NCGC00274067-01]	35.5
COc1ccc(S(=O)(=O)Nc2cnccc2C(=O)Nc2nc(-c3ccccc3)cs2)cc1.O=C(O)C(F)(F)F [NCGC00344944-01]	44.7
Cc1cc(/N=N/c2ccc(S(=O)(=O)Nc3ccccn3)cc2)c(N)cc1O [NCGC00356068-01]	44.7
CC1=C[C@@H]2[C@H]([C@@H](O)C[C@@]3(C)[C@H]2C[C@@H](C)[C@]3(O)C(=O)CO)[C@@]2(C)Cc3cnn(-c4ccccc4)c3C=C12 [NCGC00242505-01]	12.6
Cc1ccc(C)n1-c1sccc1C(=O)O [NCGC00253437-01]	7.9
O=C1Nc2cc(Cl)ccc2Nc2cscc21 [NCGC00167991-01]	50.1
O=C(O)c1ccc(-n2cccc2/C=C2\SC(=O)N(Cc3cccc(Cl)c3)C2=O)cc1 [NCGC00182735-01]	56.2
CCOC(=O)CC(SP(=S)(OC)OC)C(=O)OCC (stereo not shown) [NCGC00091902-08]	20
N#Cc1ccc(Nc2nc(-c3ccc(O)cc3O)cs2)cc1C(F)(F)F [NCGC00386816-01]	28.2
Oc1ccc(Cl)cc1Cc1cc(Cl)ccc1O [NCGC00091325-09]	10
Cc1ccccc1C(=O)N1CCc2cc(-c3nc(NC(=O)Cc4ccc(OCCOCCOCCN)cc4)sc3C)ccc21.O=C(O)C(F)(F)F [NCGC00351618-01]	11.2
NC[C@@H](O)c1ccc(O)c(O)c1.O=C(O)C(O)C(O)C(=O)O [NCGC00094737-04]	100
Cc1cccc(C(=O)c2no[n+]([O-])c2C(=O)c2cccc(C)c2)c1.O=C(O)C(F)(F)F [NCGC00351156-01]	10
Nc1ccc(O)c([N+](=O)[O-])c1 [NCGC00091261-03]	63.1
O=C(O)C(F)(F)F.O=C(c1ccc(F)cc1)c1no[n+]([O-])c1C(=O)c1ccc(F)cc1 [NCGC00351162-01]	35.5
C=C1C(OC(=O)/C(C)=C\C)[C@@]23CCC4[C@@](C)(CCC[C@@]4(C)C(=O)O)C2CC[C@H]1C3OC(C)=O (stereo partly shown) [NCGC00381205-01]	8.9
CC1=C(O)C(=O)C=C2C1=CC=C1[C@@]2(C)CC[C@@]2(C)[C@@H]3C[C@](C)(C(=O)O)CC[C@]3(C)CC[C@]12C [NCGC00178913-04]	44.7
O=c1cc(-c2ccccc2)oc2cc(O)c(O)c(O)c12 [NCGC00017236-08]	39.8
CC1=C(C(=O)Nc2cccc(C(=O)O)c2)C(c2ccccc2Cl)N=C(Nc2nc3ccccc3o2)N1.O=C(O)C(F)(F)F (stereo not shown) [NCGC00351024-01]	79.4
C=C1[C@@H](C)[C@H]2[C@H](Cc3ccccc3)NC(=O)[C@]23OC(=O)/C=C/C(=O)CCC[C@@H](C)C/C=C/[C@H]3[C@@H]1O [NCGC00388356-01]	5.6
CCCC(=O)c1cc(O)c(O)cc1O [NCGC00091839-03]	31.6
FC(F)(F)c1cccc(N2CCN(C(=S)Nc3nccc4cccnc34)CC2)c1.O=C(O)C(F)(F)F [NCGC00244201-01]	22.4
NC(=O)c1ccc(Cc2c(-c3cccc(-c4ccccc4)c3)nn(-c3nc(C(=O)O)cs3)c2O)cc1.O=C(O)C(F)(F)F [NCGC00356638-01]	44.7
Cl.Nc1cc(C(F)(F)F)ccc1S [NCGC00262926-01]	12.6
